# apparent KD of MS2 coat protein per entry
test system: MS2 coat protein; test: apparent KD of MS2 coat protein; designed switch direction (-1 OFF switch, 1 ON switch): -1; higher = weaker reporter binding; settings: Eterna round: R95; input ligand: microRNA oligo, concentration not stated

Worked cases, apparent KD of MS2 coat protein given:
Sequence Content | System | Measured Metric | Data Value
ACGCCUCCUGUCAGGAUAUGCAUCGGGCUUCCGCAGCAGAAGGGACAUGAGGAUCACCCAUGUCAAAUAAAAUC [Onsoqule] (puzzle: Brourd's mod of Exclusion 4) | MS2 coat protein | apparent KD of MS2 coat protein | 16.3 nM
UUUAAAAUUUCAAUCUUCGCUGGCAAACUUGCGCCAGCUACAUGAGGAUCACCCAUGUUUUUUGCCCGUCUUAUUCU [Inisti] (puzzle: Sensor v3, turn-off variant 2) | MS2 coat protein | apparent KD of MS2 coat protein | 170 nM

Please examine the following record next.
The sequence listed as CAGAAUUGAGGAUAUGAUCAAUUUAACAUGAGGAUCACCCAUGUAUGGGAAUGAUUCUGAUCAGAAGGCGAUUCUU [Exclusion 5: 1:a] (puzzle: Exclusion 5) shows apparent KD of MS2 coat protein equal to 285 nM

---

tested on: MS2 coat protein; assay: apparent KD of MS2 coat protein; designed switch direction (-1 OFF switch, 1 ON switch): -1; higher = weaker reporter binding; details: Eterna round: R95; input ligand: microRNA oligo, concentration not stated
Kindly return 1 if reported apparent KD of MS2 coat protein is no lower than 0.05 µM; return -1 if it is lower.

Examples with answers:
Sequence Content | Assigned Category
CUGAGCAGACGGAGAUCCAACAUGAGGAUCACCCAUGUCUCAAAAGCUUUUUGCUUGUCUUACCCUCCUCUGUUCUC [Isceeren] (puzzle: Sensor v3, turn-off variant 1) | 1
AGUGCUAACACGUUGGUGUUAGUACCAUAAGCUUGUGAUACAUGAGGAUCACCCAUGUCCUCAUAAGCUCGUCUUAU [salish99_TOv2_r2_098] (puzzle: Sensor v3, turn-off variant 2) | 1
AUCGUGGCUCAGGAUAUCAGCCCUGUGGAGUUCUGAGAAGGGAGCACAUGAGGAUCACCCAUGUGAAAGGGUAC [Esdienar] (puzzle: Exclusion 6) | -1
AGUAGUAGUAUCCGAUCCUACAUGAGGAUCACCCAUGUUGCUAGACGUGCACGCGAUGCUCGUCAGACUACCAGAUG [salish99_TOv1_r3_050] (puzzle: Sensor v3, turn-off variant 1) | 1
AACAAGCUUUUAAGAUGAAAGAUAGUAGGUAGCUCCUUUACAUGAGGAUCACCCAUGUUUGUGUAGCUCGAUCUUAU [JR_SV3TOV2_Sub076] (puzzle: Sensor v3, turn-off variant 2) | -1

Is apparent KD of MS2 coat protein at least 0.05 µM? Consider CUUCGACAUGAGGAUCACCCAUGUCAGGAUAUUGUGUAUCGGGUUUUUUACGGAAAGGCGAGAAGGGAUGUGUG [LRO-Excl1-09] (puzzle: Exclusion 1)
-1

Tell me whether apparent KD of MS2 coat protein is at least 0.05 µM here: GCCGGUUAAGUCAGGAUAUACCUAUGGAUACAUAGGUAGAAGGGACAUGAGGAUCACCCAUGUUCCUCAUCGGC [Fiskers BMX 4 - 13] (puzzle: Brourd's mod of Exclusion 4)
-1

Item GAGGAUAGAGGAUAUGCAUAGAUACGGAUUCGUGUAGUACUACAUGAGGAUCACCCAUGUAGAAGGCUGUCCAG [Mat - Exclusion 2 - Mod of JL - D75] (puzzle: Exclusion 2) with apparent KD of MS2 coat protein of 0.05 µM or above?
-1

For this sequence, is measured apparent KD of MS2 coat protein 0.05 µM or higher? CCCAUGUCAGGAUAUCUAAGAGAGGGCCAGCCCUCUCCUCCGGAGAAGGGACAUGAGGAUCACCCAUGUAAAAC [Biedle] (puzzle: Exclusion 4)
1

Determine whether this sequence has apparent KD of MS2 coat protein no lower than 0.05 µM: AAUAACAGAGGAUAUACUGUUUUAUGUGUUUGUUGUUUUGAACAUGAGGAUCACCCAUGUAGAAGGCUGAGUAA [JMF 41] (puzzle: Exclusion 2)
-1

---

apparent KD of K4 kissing-loop reporter for assorted sequences
test system: K4 kissing-loop RNA reporter; experiment: apparent KD of K4 kissing-loop reporter; higher = weaker reporter binding; conditions: Eterna round: R107; input ligand: theophylline 20 uM;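 note: bound reporter read as fluorescence of individual clusters on recovered sequencing chips by microscopy, with normalized cluster intensities fitted with a binding model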
Reply numerically in nM, unit not repeated.

Example results:
Sequence Content | apparent KD of K4 kissing-loop reporter (nM)
GAACGAGUGAUGUUCGUUAUUAUGCAUUCCGAGGAUAUGGGAUUAGCCAGAAGGCGGAAUCAAUCUUCGAGUGAUGUUCGAAGAU [Same State FMN A GF 11] | 119
GAGAUAGAGGCGGCCGCCACUAGUGAUGUUAGUGAUGUUAGAUAGAGAAUAGAACAGAGAUAGGAUAGGACCGGGCCAGAUAGAG [Tryptophan B Exclusion; Euphoria Solution] | 52.1
AUGAGGAGCAGUGAUCCUACUCCAUGGGAAGGAGCGUAGGAUACUACAGGUAGGUCGCCCAGUGAUGUUGGGCGCGUGCUCUUGG [Isatquesra] | 148

Sure, the documented apparent KD of K4 kissing-loop reporter for AAAAUAAGCCAGUGAUGUUGGUGUCCAGAUACCAGCGACGAAAGUCGCCCUUGGCAGCUGUGGACGUACAAAAUAAGUACGUCCU is 957

Query UGGGAUGUUAAAGGAUAUAGCAGGUGAUAUAAGAAAGUGAGUGAUGUUUAUGUAGAUGAUGAUAUGUUAGAAGGUUAACAAAACG [abcdefghi] yields apparent KD of K4 kissing-loop reporter of 318

The sequence identified as GAAAGAAAGUAUGAUACCAGACACCCGAGUGAUGUUCGGAGCAGUGUGUUGUUCUUUUAAGUCCCUUGGCAGCAUAAAAGAAAAG [whbob_SS_Theo_B_sa85] registered its apparent KD of K4 kissing-loop reporter at 114

GGGAUGUAGUGAUGUUAUAUUAGAUGUAGACGAGGACCGGUACGGCCGCCACUCGUGAUGGCUGCUAGCACGUUUCGAUGUUUGC [ExTryptoA.Cr] has a reported apparent KD of K4 kissing-loop reporter of 462

GET /value?item= CACCAUGAAUUCUCUAGGAGUGAUGUUUUUCGAGGACCGGUACGGCCGCCACUCGGACGAGGACCGUGGGAGCGGCGAAGCGGCU [?oegmullin] &field=apparent KD of K4 kissing-loop reporter returns 169

response.value for ACUGUACCGGGAAGGAGCGUGAAUGAGAAUGGAUAUAGUGAUGUUAUGUAUACGAACGAAUCGCAGGUAGGUCGCCCGGAUCCCU [SSArgB.aC] (field: apparent KD of K4 kissing-loop reporter) = 851

Given item GCCGUAGAUUGAAGGAGCGGUGAAUGCAGGUGAGUCCUUUAGAUGUUUAGUGAUGUUAAACACCAGGUAGGUCGCAAUCUACGGC , the value recorded as its apparent KD of K4 kissing-loop reporter is 200

Kindly note the recorded apparent KD of K4 kissing-loop reporter for GUACACUCUCGAGUGAUGUUCGGUAAUAGAGAGGAUAUCGCUUUUGCGAGAAGGCUCUGAAUGAGGAAACUCGUUCUGUGUGUAC [FMN A 20] , which is 858

Recorded result, AGUGUUGUUUUUUUUAAGAGUGAUGUUUUUCGAGGACCGGUACGGCCGCCACUCGAGUGAUGAGUGAGGUGUGGUGAUGAUUAGU [#10 K4 Tryptophan A Exclusion] , apparent KD of K4 kissing-loop reporter: 664

apparent KD of K4 kissing-loop reporter measured on GUUACGCAUGGAAGGAGCGCACUCCGAUUGGACGACACAGUGAUGUUGUGGUUCGUUCGAAUGCAGGUAGGUCGCCAUGUGUAAC [Ex Arginine B K4 19] = 134

For this sequence ( UGAUACCAGACGGCCGCCACUAGGACCGGGAGUGAUGUUCCGAAAAUUAAAUGCUCGGCCGCCACUAGGACCGGGUCUGGUAUCU [TrypBX 28 #DoubleAptamer #SwitchBubble] ), measured apparent KD of K4 kissing-loop reporter is 349

In plain terms, UGACUGGAUGGAAGGAGCGCUAAACUCCUAGUGAUGUUAGGGACACGAGACAAAGUCUUGAAGCAGGUAGGUCGCCAUCUAGUCU [FiskerMod 9 - Jieux - Same State - Arginine B] has a documented apparent KD of K4 kissing-loop reporter of 228

Memo: UUUAACGAGUGAUGUUCGAAGAGUAAUGGUGAGGAUAUCGAUUUUUCGAGAAGGCACCUCGAAGUGAUACGAAAGUAUCGCUUCG [FMN A 5] , reported apparent KD of K4 kissing-loop reporter: 269

Kindly note the recorded apparent KD of K4 kissing-loop reporter for CUCAAACCGUGGGCAUUUCGCAAAGUAGAUACCAGUCGCAACGGUGACCCUUGGCAGCUAGUAAAGUGAUGUUUUAUCGGCACCA [theeternabot_exclusion_KL_Theo_A_35] , which is 78.6

apparent KD of K4 kissing-loop reporter in this record for GCCGUACGCAUGGAUACCAGCACAGGCCGAAGUGAUGUUUCGUGCGUAUAUUUGUGCUACUGCCCUUGGCAGCCAUGCGUACGGC : 66.5

# sequence UAACUUGCAGUGAUGUUGCAAGAACUGGAUACCAGCAUGGAAACAUGCCCUUGGCAGCCAGAAGGUAUCCUCUGCAAGAGAUACA [Design1] ; its apparent KD of K4 kissing-loop reporter = 289

Ref: the supplement of paper PMC9170038
